B1: unnamed (parent)
chain 1: DHQIRELTAKMETQSMYVSELKRTIRTLEDKVAEIEAQQCNGIYIWKIGNFGMHLKCQEEEKPVVIHSPGFYTGKPGYKLCMRLHLQLPTAQRCANYISLFVHTMQGEYDSHLPWPFQGTIRLTILDQSEAPVRQNHEEIMDAKPELLAFQRPTIPRNPKGFGYVTFMHLEALRQRTFIKDDTLLVRCEVSTRFDMGSLRREGFQPRSTDAGV
chain 2: KKVAKKPTNKAPHPKQEPQEINFPDDLPGSNTAAPVQETLHGCQPVTQEDGKESRISVQERQ

Variants of: B1
Experiment: AlphaScreen
Details: with partner chain of the complex shown; parent: 100; read off a plot
Attribute: percent of parent
Outcome Measure: percent of parent (%)

chain 1 R83A | 85
chain 1 K160A | 90
chain 1 F162A | 1
chain 1 Y164A | 1
